- Assay Explanation: in vitro
- Particulars: both, human, 10-fold diluted pooled whole saliva supernatant (WSS)
Ends that are not written are not given here.
Measurement Name: remaining at 0.5 h, 50 µg mL^-1 (%)
Just the number in %, nothing appended.

Please review the following examples before continuing.
[[record]]
substance = "WAKRHHGYKRKFH [WP113]"
reading = 89.5

[[record]]
substance = "WKRHHGYK [Peptide 7WH5]"
reading = 100

[[record]]
substance = "WKRHHGY [Peptide 6WH5]"
reading = 98.8


Entry WKRHHGYKR [Peptide 8WH5] , remaining at 0.5 h, 50 µg mL^-1 reported as 99.9

###

- Assay Explanation: in vitro
- Particulars: both, human, 10-fold diluted pooled whole saliva supernatant (WSS)
Ends that are not written are not given here.
Measurement Name: remaining at 6 h, 50 µg mL^-1 (%)
Just the number in %, nothing appended.

[[record]]
substance = "WKRHHGYK [Peptide 7WH5]"
measurement_name = "remaining at 6 h, 50 µg mL^-1"
reading = 55.9

[[record]]
substance = "WKRHHGY [Peptide 6WH5]"
measurement_name = "remaining at 6 h, 50 µg mL^-1"
reading = 52.4


Entry WKRHHGYKR [Peptide 8WH5] , remaining at 6 h, 50 µg mL^-1 reported as 62

###

- Assay Explanation: in vitro
- Particulars: both, human, 10-fold diluted pooled whole saliva supernatant (WSS)
Ends that are not written are not given here.
Measurement Name: remaining at 8 h, 50 µg mL^-1 (%)
Just the number in %, nothing appended.

Entry WKRHHGY [Peptide 6WH5] , remaining at 8 h, 50 µg mL^-1 reported as 30.6

Entry WKRHHGYK [Peptide 7WH5] , remaining at 8 h, 50 µg mL^-1 reported as 49.6

Entry WKRHHGYKR [Peptide 8WH5] , remaining at 8 h, 50 µg mL^-1 reported as 44.2

###

Parameter: remaining at 24 h, 50 µg mL^-1. Scope: all listed entries.
- Assay Explanation: in vitro
- Particulars: both, human, 10-fold diluted pooled whole saliva supernatant (WSS)
Ends that are not written are not given here.
Just the number in %, nothing appended.

Please review the following examples before continuing.
[[record]]
substance = "WKRHHGYK [Peptide 7WH5]"
reading = 19.1

[[record]]
substance = "WKRHHGYKR [Peptide 8WH5]"
reading = 8.6


Entry WKRHHGY [Peptide 6WH5] , remaining at 24 h, 50 µg mL^-1 reported as 16.5

###

- Assay Explanation: in vitro
- Particulars: both, human, 10-fold diluted pooled whole saliva supernatant (WSS)
Ends that are not written are not given here.
Parameter: remaining at 48 h, 50 µg mL^-1. Scope: all listed entries.

Please review the following examples before continuing.
[[record]]
substance = "WKRHHGYKR [Peptide 8WH5]"
measurement_name = "remaining at 48 h, 50 µg mL^-1"
reading = "3.5%"

[[record]]
substance = "WKRHHGYK [Peptide 7WH5]"
measurement_name = "remaining at 48 h, 50 µg mL^-1"
reading = "6.9%"


Entry WKRHHGY [Peptide 6WH5] , remaining at 48 h, 50 µg mL^-1 reported as 8.3%

###

- Assay Explanation: in vitro
- Particulars: both, human, 10-fold diluted pooled whole saliva supernatant (WSS)
Ends that are not written are not given here.
Measurement Name: remaining at 4 h, 50 µg mL^-1
Write the numeric value and follow it with the unit.

Please review the following examples before continuing.
[[record]]
substance = "WKRHHGYK [Peptide 7WH5]"
measurement_name = "remaining at 4 h, 50 µg mL^-1"
reading = "86.2%"

[[record]]
substance = "WAKRHHGYKRKFH [WP113]"
measurement_name = "remaining at 4 h, 50 µg mL^-1"
reading = "7.23%"


Entry WKRHHGYKR [Peptide 8WH5] , remaining at 4 h, 50 µg mL^-1 reported as 80.3%

Entry WKRHHGY [Peptide 6WH5] , remaining at 4 h, 50 µg mL^-1 reported as 79.3%
